- Test system: Renilla luciferase RNA
- ASSAY DETAILS: Barcoded aptazyme variant library screen: un-cleaved Renilla luciferase RNA by barcode read counts, HEK293-T cells
- Format: cell-based
- CONDITION LABEL: un-cleaved Renilla luciferase RNA by barcode read counts; with 1 mM theophylline (ON) over without theophylline (OFF); HEK293-T cells; triplicate
RECORDED METRIC: Fold change in RNA expression between the ON state and the OFF state
Provide a numeric answer; units are not to be included.

A selection of reference data follows.
{"MOLECULE": "RA303 (nucleic acid, expressed or natural sequence) DNA: GCGCCGGAATACCAGCATCGTCTTGATGCCCTTGGAAGTCCGGTCCTGGATTCGCGGAAACGCGTACATCCAGCTGACGAGTCCCAAATAGGACGAAACGCGC", "RECORDED MEASUREMENT": 1.0}
{"MOLECULE": "RA454 (nucleic acid, expressed or natural sequence) DNA: GCGCGTCCTGGATTCGCGGAAACGCGTACATCCAGCTGACGAGTCCAGAATACCAGCATCGTCTTGATGCCCTTGGAAGTCTCAAATAGGACGAAACGCGC", "RECORDED MEASUREMENT": 0.5}
{"MOLECULE": "RA379 (nucleic acid, expressed or natural sequence) DNA: GCGCGTCCTGGATTCGCGGAAACGCGGAATACCAGCATCGTCTTGATGCCCTTGGAAGTCCGTACATCCAGCTGACGAGTCCCAAATAGGACGAAACGCGC", "RECORDED MEASUREMENT": 0.8}
{"MOLECULE": "RA439 (nucleic acid, expressed or natural sequence) DNA: GCGCGTGAGAATACCAGCATCGTCTTGATGCCCTTGGAAGTCTCCCTGGATTCGCGGAAACGCGTACATCCAGCTGACGAGTCCCAAATAGGACGAAACGCGC", "RECORDED MEASUREMENT": 0.6}

INPUT: Given the molecule RA376 (nucleic acid, expressed or natural sequence) DNA: GCGCGTCCTGGATTCGCGGAAACGCGTACATCCAGCTGAAGAATACCAGCATCGTCTTGATGCCCTTGGAAGTCTCGAGTCCCAAATAGGACGAAACGCGC , write its reported Fold change in RNA expression between the ON state and the OFF state.
OUTPUT: 0.8

INPUT: Supply Fold change in RNA expression between the ON state and the OFF state value. Item: RA401 (nucleic acid, expressed or natural sequence) DNA: GCGCGTCCTGGATTCGCGGAAACGCGCGGAATACCAGCATCGTCTTGATGCCCTTGGAAGTCCGTACATCCAGCTGACGAGTCCCAAATAGGACGAAACGCGC
OUTPUT: 0.7

INPUT: Note down Fold change in RNA expression between the ON state and the OFF state recorded for RA328 (nucleic acid, expressed or natural sequence) DNA: GCGCGTCCTGGATTCGCGGAAACGCGTACATCCAGCTGACAGTGATACCAGCATCGTCTTGATGCCCTTGGCAGCACTGAGTCCCAAATAGGACGAAACGCGC
OUTPUT: 0.9
